Tested on: OVCAR-5 ovarian
Test: NCI tumour cell line growth inhibition, 48 h
readout type: GI50

compound	readout type	observed result
O=C1/C(=C/c2ccc(Cl)c(Cl)c2)CN(C(=O)C(Cl)Cl)C/C1=C\c1ccc(Cl)c(Cl)c1	GI50	0.204 µM
CCN1CCN(c2nc(C)cc(N(CCCNc3ccnc4cc(Cl)ccc34)Cc3ccc4c(c3)OCO4)n2)CC1	GI50	2.57 µM
NC(=O)c1ccc2c(c1)-c1nc-2nc2[n-]c(nc3nc(nc4[n-]c(n1)c1ccc(C(N)=O)cc41)-c1ccc(C(N)=O)cc1-3)c1ccc(C(N)=O)cc21.[Co+2]	GI50	> 50 µM
CSc1ccc(C2=C(c3ccccc3)C(=O)OC2)cc1	GI50	5.18 µM
O=C1Nc2ccc(Br)cc2C12CC(c1ccccc1)=NN2 (centres undefined)	GI50	16.7 µM
O=C1CC(c2c[nH]c3ccc(F)cc23)C(=O)N1 (centres undefined)	GI50	> 100 µM
COc1ccc2c(c1)OC(N)=C(C#N)C2c1cc(OC)c(OC)c(OC)c1 (centres undefined)	GI50	0.059 µM
O=C1Nc2ccc(Cl)cc2/C1=C\c1c(-c2ccc(Cl)cc2)nc2sc(C3CC3)nn12	GI50	11.7 µM
COc1cnc2c(c1)C(=O)c1c-2n(CCCNC2=NCCS2)c(=O)c2cc(F)ccc12	GI50	0.795 µM

* * *

Tested on: OVCAR-3 ovarian
Assay: NCI tumour cell line growth inhibition, 48 h

compound	GI50
CSc1ccc(C2=C(c3ccccc3)C(=O)OC2)cc1	0.188 µM
c1ccc(-c2oc(-c3ccccc3)c(CN3CCCCC3)c2CN2CCCCC2)cc1	2.92 µM
O=C(Nc1ccc(Oc2ccc(F)cc2)cc1)[C@@H]1C[C@@H](Cc2ccc(F)cc2)CN1C(=O)Cn1ccnn1	8.12 µM
CCOC(=O)CSc1cc(Cl)c(C)cc1S(=O)(=O)/N=C(/N=C/c1ccc([N+](=O)[O-])s1)NNC	10.3 µM
CC1CC2C3CCC4=CC(=O)C=CC4(C)C3(F)C(O)CC2(C)C1(O)C(=O)COP(=O)(O)O (centres undefined)	> 500 µM
O=C1Nc2ccc(Br)cc2C12CC(c1ccccc1)=NN2 (centres undefined)	3.26 µM
CN(C)c1ccc(/C=C\c2ccnc3ccccc23)cc1	7.88 µM
Cc1cc(=O)oc2ccc(OC/C=C3\CCC(=O)O3)cc12	3.59 µM
COC1(CC[C@@H](C)COC2OC(CO)C(O)C(O)C2O)O[C@H]2C[C@H]3[C@@H]4CC=C5C[C@@H](OC6OC(CO)C(OC7OC(C)C(O)C(O)C7O)C(O)C6OC6OC(C)C(O)C(O)C6O)CC[C@]5(C)[C@H]4CC[C@]3(C)[C@H]2[C@@H]1C (some centres undefined)	2.04 µM

* * *

Test system: OVCAR-3 ovarian
Assay: NCI tumour cell line growth inhibition, 48 h
readout type: TGI (µM)

compound	readout unit	value comparator	observed result
CCN1CCN(c2nc(C)cc(N(CCCNc3ccnc4cc(Cl)ccc34)Cc3ccc4c(c3)OCO4)n2)CC1	µM	=	3.96
c1ccc(-c2oc(-c3ccccc3)c(CN3CCCCC3)c2CN2CCCCC2)cc1	µM	=	10.5
CC(C)(C)N=CN1C=Cc2nc3ccccc3cc2C1	µM	>	100
CN(C)CCNc1ccc2ncn3c4ccccc4c(=O)c1c23	µM	>	100
COc1nc(N=P(c2ccccc2)(c2ccccc2)c2ccccc2)cc(=O)n1C	µM	>	100
CC(C)(CN1C(=O)C(Cl)=C(Cl)C1=O)CN1C(=O)C(Cl)=C(Cl)C1=O	µM	=	23.2
CN1CCN(CC(=O)N(C)c2ccc(N=C(c3ccccc3)c3c(O)[nH]c4ccc(C#N)cc34)cc2)CC1	µM	=	14.2
Cc1ccc(S(=O)c2cccs2)cc1 (stereo not given)	µM	>	100
COc1ccc(C2=Nc3c(nc(OC)[nH]c3=O)NC(c3ccccc3)C2)cc1 (stereo not given)	µM	>	100
C[C@H]1CC[P+](Cc2ccccc2)(c2ccccc2)C1 (stereo not given in full)	µM	>	100

* * *

Test system: COLO 205 colon
Experiment: NCI tumour cell line growth inhibition, 48 h; in the data active = GI50 below about 0.43 µM; inactive = the rest
Labels: active, inactive

compound	assigned class
CSC1=NC(=Nc2c(C)cccc2C)C2(CCC(C(C)(C)C)CC2)N1c1ccc(Cl)cc1 (stereo not drawn)	inactive
Cc1cc(=O)oc2ccc(OC/C=C3\CCC(=O)O3)cc12	inactive
C[C@@]1([C@H](OC(=O)c2ccccc2)C(N)=O)CO1	inactive
CN1CCN(CC(=O)N(C)c2ccc(N=C(c3ccccc3)c3c(O)[nH]c4ccc(C#N)cc34)cc2)CC1	inactive
O=C1Nc2ccc(Cl)cc2/C1=C\c1c(-c2ccc(Cl)cc2)nc2sc(C3CC3)nn12	inactive
COc1cc(/C=C2\C(=O)N(Cc3ccc(Cl)cc3)c3ccccc32)cc(OC)c1OC	inactive
O=C(Nc1ccc(Oc2ccc3nc(NC(=O)c4ccco4)[nH]c3c2)cc1)Nc1cc(C(F)(F)F)ccc1F	inactive
CCOCC1(COCC)CCC(c2[nH]ncc2CN(C)CCNC)CC1	inactive
COc1cnc2c(c1)C(=O)c1c-2n(CCCNC2=NCCS2)c(=O)c2cc(F)ccc12	active
COc1cc(CNCCCCCCN2C(=O)c3cccc4cccc(c34)C2=O)ccc1O	inactive
Clc1nccc2c(-c3csc(-c4c[nH]c5ccc(Br)cc45)n3)c[nH]c12	inactive
CCOC(=O)CSc1cc(Cl)c(C)cc1S(=O)(=O)/N=C(/N=C/c1ccc([N+](=O)[O-])s1)NNC	inactive
O=C(CS(=O)(=O)c1nc2ccccc2nc1-c1ccccc1)Nc1ccc(F)cc1	inactive
O=C(Nc1ccc(Oc2ccc(F)cc2)cc1)[C@@H]1C[C@@H](Cc2ccc(F)cc2)CN1C(=O)Cn1ccnn1	inactive
COc1ccc(C(O)c2cc3c(N)c(C(=O)Nc4ccc(Cl)cc4)sc3nc2C)cc1 (stereo not drawn)	inactive
COC1(CC[C@@H](C)COC2OC(CO)C(O)C(O)C2O)O[C@H]2C[C@H]3[C@@H]4CC=C5C[C@@H](OC6OC(CO)C(OC7OC(C)C(O)C(O)C7O)C(O)C6OC6OC(C)C(O)C(O)C6O)CC[C@]5(C)[C@H]4CC[C@]3(C)[C@H]2[C@@H]1C (stereo partly drawn)	inactive
Oc1ccc(Cl)cc1C(c1cc(Cl)ccc1O)C(Cl)(Cl)Cl	inactive
c1cc(N[C@@H]2CCNC2)nc(-c2cnc3ccc(-c4cn[nH]c4)cn23)c1	inactive

* * *

Documented TGI across a set of compounds
Test system: DU-145 prostate
Test: NCI tumour cell line growth inhibition, 48 h
readout type: TGI

compound	observed result
CCN(CC)c1ccc(/C=C/C(=O)c2ccc(Nc3nc(Nc4ccccc4)nc(Nc4ccccc4)n3)cc2)cc1	79.2 µM
CCCCOCCOCCOC1=CC(=O)c2c(O)ccc(O)c2C1=O	3.1 µM
COc1ccc(C(O)c2cc3c(N)c(C(=O)Nc4ccc(Cl)cc4)sc3nc2C)cc1 (stereo not drawn)	7.66 µM
C[C@@]1([C@H](OC(=O)c2ccccc2)C(N)=O)CO1	> 100 µM
CN(C)c1ccc(/C=C/C(=O)c2ccc(O)cc2)cc1	63.5 µM
O=C(Nc1ccc(Oc2ccc3nc(NC(=O)c4ccco4)[nH]c3c2)cc1)Nc1cc(C(F)(F)F)ccc1F	10.6 µM
Clc1ccc(Cl)c(N=Nc2cc3c4c(c2)CCN4CCC3)c1	> 10 µM
Cc1cccc(C2ON=C(c3ccccc3)N2C23CC4CC(CC(C4)C2)C3)c1 (stereo not drawn)	> 10 µM
C=C1CC(C)(COc2ccc3c(C)c(Cl)c(=O)oc3c2)OC1=O (stereo not drawn)	6.8 µM
COc1ccc2c(c1)OC(N)=C(C#N)C2c1cc(OC)c(OC)c(OC)c1 (stereo not drawn)	0.0802 µM
C=C1C[C@H]2C=Nc3cc(OCCCOc4cc5c(cc4OC)C(=O)N4CC(=C)C[C@H]4C=N5)c(OC)cc3C(=O)N2C1	24 µM
c1ccc(-c2oc(-c3ccccc3)c(CN3CCCCC3)c2CN2CCCCC2)cc1	21.6 µM
CCOC(=O)CSc1cc(Cl)c(C)cc1S(=O)(=O)/N=C(/N=C/c1ccc([N+](=O)[O-])s1)NNC	41.2 µM
CC(C)=CCCC(C)(OC1OC(CO)C(O)C(O)C1O)C1CCC2(C)C1C(O)CC1C3(C)CCC(O)C(C)(C)C3C(OC3OC(CO)C(O)C(O)C3OC3OC(C)C(O)C(O)C3O)CC12C (stereo not drawn) (tested in a mixture with another compound)	> 75 µM
c1cc(N[C@@H]2CCNC2)nc(-c2cnc3ccc(-c4cn[nH]c4)cn23)c1	> 100 µM
O[C@]12C=C(c3nccc4c3[nH]c3ccccc34)[C@@H]3CCN(CCCC/C=C\CC1)C[C@@]31CC3/C=C\CCCCN3[C@H]12 (stereo partly drawn)	2.86 µM
Cc1ccc(S(=O)c2cccs2)cc1 (stereo not drawn)	> 100 µM
COc1cc([N+](=O)[O-])c(OC)cc1-c1nc2sc(C)c(C)n2c1/C(N)=N/C(=N)N	> 100 µM

Numbers sourced from PubChem BioAssay (NCI).
